# method_summary: Blood Brain Barrier penetration (plasma and brain concentration)
# Assay type: in vivo
# assay_context: brain/plasma; 30 min; read-out: Brain/Plasma ratio after 30 minutes
property: Kp at 0.5 h
Lab note: record just the number, no unit beside it.

Request the reported Kp at 0.5 h associated with `C[C@@H]1CN(Cc2ncccn2)C[C@H]1c1cn2c(C3CCOCC3)ncc2c(=O)[nH]1`
0.04
